System: SK-BR-3
Method Description: normalised response (% of control), CellTiter-Glo; higher = more viable cells (100 = DMSO, 0 = benzethonium chloride kill control)
Condition Context: incubation time: 72 h
Assign satisfied to entries whose normalised response meets or exceeds 50%; assign not satisfied to the rest.

>>> classification("O=NN(CCCl)C(=O)NCCCl [Carmustine] (10000 nM)")
"satisfied"
>>> classification("CC(=O)N(O)CCCCCNC(=O)CCC(=O)N(O)CCCCCNC(=O)CCC(=O)N(O)CCCCCN [Deferoxamine] (10000 nM)")
"not satisfied"
>>> classification("Oc1ncnc2[nH]ncc12 [Allopurinol] (10000 nM)")
"satisfied"
>>> classification("Cc1sc2c(c1C)C(c1ccc(Cl)cc1)=N[C@@H](CC(=O)OC(C)(C)C)c1nnc(C)n1-2 [(+)JQ1] (10000 nM)")
"satisfied"
>>> classification("CC(=O)c1c(C)c2cnc(Nc3ccc(N4CCNCC4)cn3)nc2n(C2CCCC2)c1=O [Palbociclib] (10000 nM)")
"satisfied"

---

System: CAL-148
Method Description: drug sensitivity score (DSS), CellTox Green (DSS (AUC-based score)); higher = stronger drug effect (viability inhibition or cytotoxicity); extreme values may be limits of the assay
Condition Context: incubation time: 72 h
Recorded drug sensitivity score, one value per entry.
Readout: drug sensitivity score

>>> test_result("COc1cc(F)c(F)c(Nc2ccc(I)cc2F)c1NS(=O)(=O)C1(C[C@H](O)CO)CC1")
0
>>> test_result("Cc1sc2c(c1C)C(c1ccc(Cl)cc1)=N[C@@H](CC(=O)OC(C)(C)C)c1nnc(C)n1-2 [(+)JQ1]")
6.55
>>> test_result("CC(C)(C)c1cnc(CSc2cnc(NC(=O)C3CCNCC3)s2)o1")
0
>>> test_result("CC1(C)CNc2cc(NC(=O)c3cccnc3NCc3ccncc3)ccc21")
0

---

System: HCC1937
Method Description: normalised viability (% of control), CellTiter-Blue; higher = more viable cells (about 100 = DMSO control)
Condition Context: 1000 nM; incubation time: 72 h
# 1 = normalised viability below 80% (exclusive); -1 = normalised viability at/above 80%

>>> classification("O=NN(CCCl)C(=O)NCCCl")
-1
>>> classification("Cc1sc2c(c1C)C(c1ccc(Cl)cc1)=N[C@@H](CC(=O)OC(C)(C)C)c1nnc(C)n1-2 [(+)JQ1]")
1
>>> classification("CC(=O)c1c(C)c2cnc(Nc3ccc(N4CCNCC4)cn3)nc2n(C2CCCC2)c1=O")
-1
>>> classification("O=C1CN2Cc3c(ccc(Cl)c3Cl)N=C2N1 [Anagrelide]")
-1
>>> classification("Nc1nc2[nH]cnc2c(=S)[nH]1")
-1

---

Test system: CAL-85-1
Method Description: normalised response (% of control), CellTiter-Glo; higher = more viable cells (100 = DMSO, 0 = benzethonium chloride kill control)
Condition Context: incubation time: 72 h
Decision: normalised response compared against 90%; not below it gives Condition met, below it gives Condition not met.

>>> classification("CC(=O)O[C@@]12CO[C@@H]1C[C@H](O)[C@@]1(C)C(=O)[C@H](O)C3=C(C)[C@@H](OC(=O)[C@H](O)[C@@H](NC(=O)OC(C)(C)C)c4ccccc4)C[C@@](O)([C@@H](OC(=O)c4ccccc4)[C@H]21)C3(C)C [Docetaxel] (1 nM)")
"Condition not met"
>>> classification("CC1(C)CNc2cc(NC(=O)c3cccnc3NCc3ccncc3)ccc21 [Motesanib] (10 nM)")
"Condition met"
>>> classification("Nc1ncn([C@@H]2O[C@H](CO)[C@@H](O)[C@H]2O)c(=O)n1 [Azacitidine] (1000 nM)")
"Condition met"
>>> classification("CC1=C2C[C@H]3[C@@H](CC=C4C[C@@H](O)CC[C@@]43C)[C@@H]2CC[C@]12O[C@@H]1C[C@H](C)CN[C@H]1[C@H]2C [Cyclopamine] (1 nM)")
"Condition met"
>>> classification("CC(=O)c1c(C)c2cnc(Nc3ccc(N4CCNCC4)cn3)nc2n(C2CCCC2)c1=O [Palbociclib] (1000 nM)")
"Condition met"
>>> classification("CC(=O)O[C@@]12CO[C@@H]1C[C@H](O)[C@@]1(C)C(=O)[C@H](O)C3=C(C)[C@@H](OC(=O)[C@H](O)[C@@H](NC(=O)OC(C)(C)C)c4ccccc4)C[C@@](O)([C@@H](OC(=O)c4ccccc4)[C@H]21)C3(C)C [Docetaxel] (100 nM)")
"Condition not met"
